Reported values of OD450 for individual entries
# experimental-target: T1, recombinant protein CDH6 (UniProt P55285 54-615)
# T1 construct: also called CDH6 recombinant protein; CDH6 antigen
# T1 sequence (looked up): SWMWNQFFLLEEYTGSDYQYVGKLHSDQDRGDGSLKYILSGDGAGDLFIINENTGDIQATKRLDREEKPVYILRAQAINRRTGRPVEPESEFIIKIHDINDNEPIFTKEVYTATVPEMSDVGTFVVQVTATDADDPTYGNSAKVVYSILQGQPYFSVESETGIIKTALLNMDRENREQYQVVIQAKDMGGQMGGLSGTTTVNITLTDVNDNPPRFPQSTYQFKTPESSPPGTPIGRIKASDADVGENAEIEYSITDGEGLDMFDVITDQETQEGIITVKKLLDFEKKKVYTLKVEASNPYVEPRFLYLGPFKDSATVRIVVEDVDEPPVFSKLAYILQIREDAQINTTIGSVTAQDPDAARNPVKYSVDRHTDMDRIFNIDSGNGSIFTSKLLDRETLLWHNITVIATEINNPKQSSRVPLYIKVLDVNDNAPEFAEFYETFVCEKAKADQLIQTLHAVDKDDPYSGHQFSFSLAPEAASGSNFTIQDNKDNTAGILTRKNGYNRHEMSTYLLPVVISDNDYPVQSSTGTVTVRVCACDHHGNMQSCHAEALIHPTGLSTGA
# test-description: ELISA, CDH6 coated; antibody 0.20 ng/mL
Report the value in OD450 with no unit label.

binder: CL069707 antibody (antibody, V domains shown, Mouse monoclonal antibody from hybridoma, purified from ascites with Protein A/G; also called #23; No. 23) VH: EVHLVESGGGLVQPKGSLKLSCVASGFTFTTYAMNWVRQAPGKGLEWVARIRIKNNNYATYYADSVTDRFTISRDDSQSMLYLQMNNLKTEDTAMYYCVRPDYGNYGLAYWGQGTLVTVSA VL: EIVLTQSPTTMAASPGEKITITCSASSSISSHYLHWYQQKPGFSPKLLIYRSFYLASGVPLRFTGSGSGTSYSLTIGTMEAEDVATYYCQQDIVPLTFGAGTKLELK
unit-of-measurement: OD450
OD450: 0.101

IN: # query: OD450 of entry CL069463 antibody (antibody, V domains shown, Mouse monoclonal antibody from hybridoma, purified from ascites with Protein A/G; also called #13; No. 13) VH: EVQLVESGGGLVQPKGSLKLSCAASGFTFNTYALTWVRQAPGKGLEWVGRIKSKNKDYETYYADSVKDRFTISRNDSQSLLYLQMNNLKTEDTAIYYCVRQNWNYFDYWGQGTTLTVSS VL: DIQMTQSPASLAASVGETVTITCRASENIYYSLAWYQQRQGKSPQLLIYNANSLKDGVPSRFSGSGSGTQYSMKINSMQPEDTATYFCQQAYDVPPTFGGGTKLEIK
OUT: 0.086

IN: # query: OD450 of entry CL069066 antibody (antibody, V domains shown, Mouse monoclonal antibody from hybridoma, purified from ascites with Protein A/G; also called #4; No. 4) VH: EVKLLESGGGLVQPGGSLKLSCAASGFDFSRYWMTWVRQAPGKGLEWIGEINPDSSTINYTPSLKDKFIISRDNAKNTLYLQMNKVTSEDTALYYCTRRPHYYGYFDSWGQGTTLTVSS VL: DIVLTQSPASLAVSLGQRATISCRASESVEYYGTTLMQWYQQKPGQPPQLLIYAGSNVESGVPARFSGSGSGTEFSLNIHPVEEDDIGMYFCQQSRKVPWTFGGGTKLEIK
OUT: 0.05

IN: # query: OD450 of entry CL069439 antibody (antibody, V domains shown, Mouse monoclonal antibody from hybridoma, purified from ascites with Protein A/G; also called #16; No. 16) VH: EVQLQQSGTELVRTGASVKISCKASGYSFTGYYIHWIKQSHGESLEWIGYISCFNGDTSYNQNFKDRATFNVDTSSSTAYMQFISLTSEDSAVYYCVRGRYGNFNYFDYWGQGTTLTVSS VL: DIVLTQSPASLAVSLGQRATISCRASESVEFYGTSLMQWFQQKPGHPPQLLIYATSNVDSGVPARFSASGSGTDFSLNIHPVEEADIAMYFCQQSRRIPWTFGGGTKLEIK
OUT: 0.181
